# experimentNotes: Inhibition of human coronary artery smooth muscle cells (SMC's) proliferation, induced by platelet-derived growth factor (PDGF-BB) 20 ng mL.
# Type: functional
pIC50: −log10 of the molar value.
Collected pIC50 values appear next to each entry.
readoutKind: pIC50

> print(dat)
                              smilesnotation  valuecomparator  numericresult
 1  CCOC(=O)c1cc(OC)c(OC)cc1NC(=O)c1ccc(OC)c(OC)c1OC                =           6.39
 2  CCOC(=O)c1cc(OC)c(OC)cc1NC(=O)Cc1ccc(OC)c(OC)c1                =           6.10
 3   COc1ccc(/C=C/C(=O)Nc2ccccc2C(N)=O)cc1OC                =           4.78
 4  COc1cc(C(=O)Nc2cc([N+](=O)[O-])ccc2C(N)=O)cc(OC)c1OC                =           5.80
 5      COc1ccc(NC(=O)c2ccc(OC)c(OC)c2)cc1OC                <           5.70
 6  CCOC(=O)c1cc(OC)c(OC)cc1NC(=O)c1cccc(OC)c1                =           5.80
 7  CCOC(=O)c1cc(OC)c(OC)cc1NC(=O)c1ccc(OC(C)=O)c(OC)c1                =           5.55
 8  CCOC(=O)c1cc(OC)c(OC)cc1NC(=O)c1ccc(OC)cc1                =           6.21
 9  CCOC(=O)c1cc(OC)c(OC)cc1NC(=O)c1ccc(OC)c(OC)c1                =           6.07
10  CCOC(=O)c1cc(OC)c(OC)cc1NC(=O)c1ccccc1OC                =           6.10
11  CCOC(=O)c1cc(OC)c(OC)cc1NC(=O)/C=C\c1ccc(OC)c(OC)c1                =           5.92
12  CCOC(=O)c1cc(OC)c(OC)cc1NC(=O)c1cc(OC(C)=O)c(OC(C)=O)c(OC(C)=O)c1                <           5.70
13  COc1ccc(C(=O)Nc2cc(OC)c(OC)cc2C(=O)O)cc1OC                <           5.70
14  CCOC(=O)c1cc(OC)c(OC)cc1NC(=O)c1ccc(O)c([N+](=O)[O-])c1                =           5.74
15  CNC(=O)c1cc(OC)c(OC)cc1NC(=O)c1ccc(OC)c(OC)c1                <           5.70
16  COc1cc(C(=O)Nc2cc(N)ccc2C(N)=O)cc(OC)c1OC                <           5.70
17  CCOC(=O)c1cc(OC)c(OC)cc1NC(=O)c1ccc(OC(C)=O)c(OC(C)=O)c1                =           5.66
18  COc1cc(C(=O)Nc2cc(F)c(F)cc2C(N)=O)cc(OC)c1OC                =           5.70
19   COc1ccc(C(=O)Nc2cc(OC)c(OC)cc2C#N)cc1OC                <           5.70
20  CCOC(=O)c1cc(OC)c(OC)cc1NC(=O)c1ccc(OC(C)=O)cc1                =           5.89
